- assay-system: gastrin (Rattus norvegicus)
- Construct: The stomach was excised and flushed with ca. 1 ml of unbuffered physiological saline solution; from tissue; host or cells: isolated whole stomach of immature rats (33-50 g, ca. 21 days old)
- Sequence (P30553 whole entry): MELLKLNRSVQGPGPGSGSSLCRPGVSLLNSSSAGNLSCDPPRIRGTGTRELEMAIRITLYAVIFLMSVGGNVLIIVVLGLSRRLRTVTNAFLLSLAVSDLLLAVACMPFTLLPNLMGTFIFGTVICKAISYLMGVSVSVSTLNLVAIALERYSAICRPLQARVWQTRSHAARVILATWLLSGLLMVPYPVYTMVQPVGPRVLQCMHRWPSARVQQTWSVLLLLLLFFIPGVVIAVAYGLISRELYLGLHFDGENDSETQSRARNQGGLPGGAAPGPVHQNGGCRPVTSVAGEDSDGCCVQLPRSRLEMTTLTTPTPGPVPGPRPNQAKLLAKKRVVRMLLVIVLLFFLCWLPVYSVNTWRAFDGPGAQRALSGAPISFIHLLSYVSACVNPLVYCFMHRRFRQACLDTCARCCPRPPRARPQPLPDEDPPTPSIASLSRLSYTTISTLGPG
- protocol-description: gastrin antagonist activity in an immature rat stomach assay
- measurement-setup: isolated immature rat stomach, cumulative pentagastrin dose-response curves, acid secretion; read-out: Gastrin pKB (converted)
Exercise: state measured Kb for each of the compounds provided.
Numeric answer only, unit nM assumed.

Form field Kb for item O=C(O)c1cc(NC(=O)[C@H](Cc2ccc(F)cc2)NC(=O)C2C3c4ccccc4C(c4ccccc43)C2C(=O)NCC23CC4CC(CC(C4)C2)C3)cc(C(=O)O)c1 (single isomer, unassigned) [Example 9] on gastrin (Rattus norvegicus): 20

Form field Kb for item O=C(O)c1cc(NC(=O)[C@H](Cc2cccc(F)c2)NC(=O)C2C3c4ccccc4C(c4ccccc43)C2C(=O)NCC23CC4CC(CC(C4)C2)C3)cc(C(=O)O)c1 (single isomer, unassigned) [Example 19] on gastrin (Rattus norvegicus): 25.1

Form field Kb for item O=C(O)c1cc(NC(=O)[C@H](Cc2ccccc2)NC(=O)C2C3c4ccccc4C(c4ccccc43)C2C(=O)NCC23CC4CC(CC(C4)C2)C3)cc(C(=O)O)c1 (single isomer, unassigned) [Example 2] on gastrin (Rattus norvegicus): 50.1

Form field Kb for item O=C(O)c1cc(NC(=O)[C@@H](Cc2ccc(O)cc2)NC(=O)C2C3c4ccccc4C(c4ccccc43)C2C(=O)NCC23CC4CC(CC(C4)C2)C3)cc(C(=O)O)c1 (single isomer, unassigned) [Example 26] on gastrin (Rattus norvegicus): 158

Form field Kb for item COC(=O)c1cc(NC(=O)[C@H](Cc2ccccc2)NC(=O)C2C3c4ccccc4C(c4ccccc43)C2C(=O)NCC23CC4CC(CC(C4)C2)C3)cc(C(=O)O)c1 (stereo partly drawn) on gastrin (Rattus norvegicus): 1580

Form field Kb for item O=C(O)c1cc(NC(=O)[C@H](Cc2ccc(Cl)cc2)NC(=O)C2C3c4ccccc4C(c4ccccc43)C2C(=O)NCC23CC4CC(CC(C4)C2)C3)cc(C(=O)O)c1 (single isomer, unassigned) [Example 10] on gastrin (Rattus norvegicus): 5.01

Form field Kb for item O=C(O)c1cc(NC(=O)[C@H](Cc2ccccc2)NC(=O)C2C3c4ccccc4C(c4ccccc43)C2C(=O)NCC2CCCCCC2)cc(C(=O)O)c1 (single isomer, unassigned) [Example 28] on gastrin (Rattus norvegicus): 3.98

Form field Kb for item O=C(O)c1cc(NC(=O)[C@H](CCc2ccccc2)NC(=O)C2C3c4ccccc4C(c4ccccc43)C2C(=O)NCC23CC4CC(CC(C4)C2)C3)cc(C(=O)O)c1 (stereo partly drawn) on gastrin (Rattus norvegicus): 31.6

Form field Kb for item O=C(O)c1cc(NC(=O)[C@H](Cc2ccccc2)NC(=O)C2C3c4ccccc4C(c4ccccc43)C2C(=O)NCC2CCCCC2)cc(C(=O)O)c1 (single isomer, unassigned) [Example 30] on gastrin (Rattus norvegicus): 50.1

###

- assay-system: CCKA (Cavia porcellus, UniProt Q63931)
- Construct: The pancreatata were removed from male guinea-pigs (200-300g; Dunkin Hartley); from tissue; host or cells: pancreas membranes of male Dunkin Hartley guinea-pigs
- Sequence (Q63931 whole entry): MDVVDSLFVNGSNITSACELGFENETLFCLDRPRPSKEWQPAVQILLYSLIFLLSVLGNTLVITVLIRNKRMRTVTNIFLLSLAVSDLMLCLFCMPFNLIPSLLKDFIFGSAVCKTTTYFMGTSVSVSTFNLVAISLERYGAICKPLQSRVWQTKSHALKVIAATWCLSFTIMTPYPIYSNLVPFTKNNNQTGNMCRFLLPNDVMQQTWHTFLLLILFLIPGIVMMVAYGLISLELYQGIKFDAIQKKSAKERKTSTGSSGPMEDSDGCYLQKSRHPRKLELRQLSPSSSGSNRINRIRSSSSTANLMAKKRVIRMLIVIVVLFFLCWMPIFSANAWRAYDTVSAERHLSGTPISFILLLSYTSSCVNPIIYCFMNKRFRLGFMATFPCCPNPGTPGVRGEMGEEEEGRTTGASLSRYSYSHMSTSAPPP
- protocol-description: CCKA binding assay in guinea-pig pancreas membranes
- measurement-setup: [125I]-CCK8(S) 200pM, containing 0.375 µM PD134,308, read-out: CCKA pKi (converted)
property-measured: Ki (nM)
Numeric answer only, unit nM assumed.

Measured Ki of O=C(O)c1cc(NC(=O)[C@@H](Cc2cccs2)NC(=O)C2C3c4ccccc4C(c4ccccc43)C2C(=O)NCC23CC4CC(CC(C4)C2)C3)cc(C(=O)O)c1 (single isomer, unassigned) : 1260

Measured Ki of O=C(O)c1cc(NC(=O)[C@H](Cc2ccccc2)NC(=O)C2C3c4ccccc4C(c4ccccc43)C2C(=O)NCc2ccc(Cl)c(Cl)c2)cc(C(=O)O)c1 (single isomer, unassigned) [Example 35] : 1260

Measured Ki of O=C(O)c1cc(NC(=O)[C@@H](Cc2ccccc2)NC(=O)C2C3c4ccccc4C(c4ccccc43)C2C(=O)NCC23CC4CC(CC(C4)C2)C3)cc(C(=O)O)c1 (single isomer, unassigned) [Example 3] : 2510

Measured Ki of O=C(O)c1cc(NC(=O)[C@H](Cc2cccc(F)c2)NC(=O)C2C3c4ccccc4C(c4ccccc43)C2C(=O)NCC23CC4CC(CC(C4)C2)C3)cc(C(=O)O)c1 (single isomer, unassigned) [Example 18] : 316

Measured Ki of O=C(O)c1cc(NC(=O)[C@H](Cc2ccccc2)NC(=O)C2C3c4ccccc4C(c4ccccc43)C2C(=O)NCCc2c[nH]c3ccccc23)cc(C(=O)O)c1 (single isomer, unassigned) [Example 51] : 1580

Measured Ki of O=C(O)c1cc(NC(=O)[C@H](Cc2ccccc2F)NC(=O)C2C3c4ccccc4C(c4ccccc43)C2C(=O)NCC23CC4CC(CC(C4)C2)C3)cc(C(=O)O)c1 (single isomer, unassigned) [Example 17] : 794

Measured Ki of O=C(O)c1cc(NC(=O)[C@H](Cc2ccccc2)NC(=O)C2C3c4ccccc4C(c4ccccc43)C2C(=O)NCc2cccc3ccccc23)cc(C(=O)O)c1 (single isomer, unassigned) [Example 32] : 501

Measured Ki of O=C(O)c1cc(NC(=O)[C@H](Cc2ccc(Cl)cc2)NC(=O)C2C3c4ccccc4C(c4ccccc43)C2C(=O)NCC23CC4CC(CC(C4)C2)C3)cc(C(=O)O)c1 (single isomer, unassigned) [Example 10] : 794

Measured Ki of O=C(O)c1cc(NC(=O)[C@H](Cc2ccccc2)NC(=O)C2C3c4ccccc4C(c4ccccc43)C2C(=O)NCC23CC4CC(CC(C4)C2)C3)cc(C(=O)O)c1 (single isomer, unassigned) [Example 1] : 2000

Measured Ki of COC(=O)c1cc(NC(=O)[C@H](Cc2ccccc2)NC(=O)C2C3c4ccccc4C(c4ccccc43)C2C(=O)NCC23CC4CC(CC(C4)C2)C3)cc(C(=O)O)c1 (stereo partly shown) : 2000

Measured Ki of O=C(O)c1cc(NC(=O)[C@H](Cc2ccc(F)cc2)NC(=O)C2C3c4ccccc4C(c4ccccc43)C2C(=O)NCC23CC4CC(CC(C4)C2)C3)cc(C(=O)O)c1 (single isomer, unassigned) [Example 8] : 1000

Measured Ki of O=C(O)c1cc(NC(=O)[C@H](Cc2ccccc2)NC(=O)C2C3c4ccccc4C(c4ccccc43)C2C(=O)NCC2CCCCC2)cc(C(=O)O)c1 (single isomer, unassigned) [Example 31] : 1260

Measured Ki of COc1ccc(C[C@H](NC(=O)C2C3c4ccccc4C(c4ccccc43)C2C(=O)NCC23CC4CC(CC(C4)C2)C3)C(=O)Nc2cc(C(=O)O)cc(C(=O)O)c2)cc1 (single isomer, unassigned) [Example 13] : 2000

Measured Ki of O=C(O)c1cc(NC(=O)[C@H](Cc2ccccc2)NC(=O)C2C3c4ccccc4C(c4ccccc43)C2C(=O)NCC23CC4CC(CC(C4)C2)C3)cc(C(=O)O)c1 (single isomer, unassigned) [Example 2] : 501

Measured Ki of O=C(O)c1ccc(NC(=O)[C@H](Cc2ccccc2)NC(=O)C2C3c4ccccc4C(c4ccccc43)C2C(=O)NCC23CC4CC(CC(C4)C2)C3)cc1C(=O)O (stereo partly shown) : 1260

Measured Ki of O=C(O)c1cc(NC(=O)[C@@H](Cc2ccccc2)NC(=O)C2C3c4ccccc4C(c4ccccc43)C2C(=O)NCC23CC4CC(CC(C4)C2)C3)cc(C(=O)O)c1 (single isomer, unassigned) [Example 4] : 1260

Measured Ki of O=C(O)c1cccc(NC(=O)[C@H](Cc2cccs2)NC(=O)C2C3c4ccccc4C(c4ccccc43)C2C(=O)NCC23CC4CC(CC(C4)C2)C3)c1 (single isomer, unassigned) [Example 55] : 794

Measured Ki of O=C(NCC12CC3CC(CC(C3)C1)C2)C1C2c3ccccc3C(c3ccccc32)C1C(=O)N[C@@H](Cc1ccccc1)C(=O)Nc1ccccc1 (single isomer, unassigned) : 1260

Measured Ki of O=C(O)c1cc(NC(=O)[C@H](Cc2cccs2)NC(=O)C2C3c4ccccc4C(c4ccccc43)C2C(=O)NCC23CC4CC(CC(C4)C2)C3)cc(C(=O)O)c1 (single isomer, unassigned) : 501

###

- assay-system: CCKA (Cavia porcellus, UniProt Q63931)
- Construct: The pancreatata were removed from male guinea-pigs (200-300g; Dunkin Hartley); from tissue; host or cells: pancreas membranes of male Dunkin Hartley guinea-pigs
- protocol-description: CCKA binding assay in guinea-pig pancreas membranes
- measurement-setup: [125I]-CCK8(S) 200pM, containing 0.375 µM PD134,308, read-out: CCKA pKi (converted)
property-measured: Ki (nM)
Numeric answer only, unit nM assumed.

Measured Ki of O=C(O)c1cc(NC(=O)[C@H](Cc2ccc(F)cc2)NC(=O)C2C3c4ccccc4C(c4ccccc43)C2C(=O)NCC23CC4CC(CC(C4)C2)C3)cc(C(=O)O)c1 (single isomer, unassigned) [Example 9] : 398

Measured Ki of O=C(O)c1cc(NC(=O)[C@H](Cc2ccccc2)NC(=O)C2C3c4ccccc4C(c4ccccc43)C2C(=O)NCCc2ccccc2)cc(C(=O)O)c1 (stereo partly drawn) : 3160

Measured Ki of O=C(O)c1cc(CNC(=O)[C@H](Cc2ccccc2)NC(=O)C2C3c4ccccc4C(c4ccccc43)C2C(=O)NCC23CC4CC(CC(C4)C2)C3)cc(C(=O)O)c1 (single isomer, unassigned) : 2510
